System: RARg homodimer (NR concentration 270 nM)
assay-overview: PBM binding z-score (relative to random genomic background probes); higher = stronger binding; sequences stand for … in GC…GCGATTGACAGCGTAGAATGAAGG

- residues: "ACTATTAGTTGAGACGAGGTCAACCGATAGGTTG"
  PBM binding z-score: 3.37
- residues: "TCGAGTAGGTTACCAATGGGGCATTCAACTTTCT"
  PBM binding z-score: 0.547
- residues: "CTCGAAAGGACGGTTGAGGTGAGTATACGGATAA"
  PBM binding z-score: 0.541
- residues: "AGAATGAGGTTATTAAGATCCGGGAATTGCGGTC"
  PBM binding z-score: 0.682
- residues: "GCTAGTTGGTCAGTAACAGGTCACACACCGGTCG"
  PBM binding z-score: 2.06
- residues: "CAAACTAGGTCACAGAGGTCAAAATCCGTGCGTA"
  PBM binding z-score: 7.16

* * *

Test system: RARg:RXRa (NR concentration 270 nM, RXRa partner concentration 90 nM)
assay-overview: PBM binding z-score (relative to random genomic background probes); higher = stronger binding; sequences stand for … in GC…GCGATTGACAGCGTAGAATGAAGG

- residues: "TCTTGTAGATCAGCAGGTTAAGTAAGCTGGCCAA"
  PBM binding z-score: -0.106
- residues: "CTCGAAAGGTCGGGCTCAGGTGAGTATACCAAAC"
  PBM binding z-score: 4.07
- residues: "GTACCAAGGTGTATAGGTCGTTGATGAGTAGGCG"
  PBM binding z-score: 0.597
- residues: "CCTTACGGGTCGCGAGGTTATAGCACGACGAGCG"
  PBM binding z-score: 3.39
- residues: "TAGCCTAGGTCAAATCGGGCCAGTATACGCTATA"
  PBM binding z-score: 4.3
- residues: "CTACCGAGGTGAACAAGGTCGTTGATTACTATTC"
  PBM binding z-score: 2.19
- residues: "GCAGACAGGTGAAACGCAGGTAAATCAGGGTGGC"
  PBM binding z-score: 0.816
- residues: "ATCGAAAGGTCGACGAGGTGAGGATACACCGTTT"
  PBM binding z-score: 4.27
- residues: "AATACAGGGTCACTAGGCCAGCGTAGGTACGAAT"
  PBM binding z-score: 5.12
- residues: "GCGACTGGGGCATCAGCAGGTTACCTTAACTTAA"
  PBM binding z-score: 0.268
- residues: "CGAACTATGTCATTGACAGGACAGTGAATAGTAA"
  PBM binding z-score: 0.772
- residues: "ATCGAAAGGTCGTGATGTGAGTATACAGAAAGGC"
  PBM binding z-score: 3.91
- residues: "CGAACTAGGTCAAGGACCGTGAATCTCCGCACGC"
  PBM binding z-score: 3.42
- residues: "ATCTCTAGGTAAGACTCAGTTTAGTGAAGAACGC"
  PBM binding z-score: 0.228
- residues: "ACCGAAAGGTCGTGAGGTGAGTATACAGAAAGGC"
  PBM binding z-score: 4.64
- residues: "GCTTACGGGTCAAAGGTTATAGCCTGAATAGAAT"
  PBM binding z-score: 6.87
- residues: "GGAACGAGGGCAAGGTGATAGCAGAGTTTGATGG"
  PBM binding z-score: 1.26
- residues: "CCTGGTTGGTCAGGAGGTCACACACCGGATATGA"
  PBM binding z-score: 4.98
- residues: "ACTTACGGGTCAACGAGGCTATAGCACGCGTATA"
  PBM binding z-score: 5.01
- residues: "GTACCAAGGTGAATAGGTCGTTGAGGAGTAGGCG"
  PBM binding z-score: 2.83
- residues: "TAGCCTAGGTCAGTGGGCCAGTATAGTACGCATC"
  PBM binding z-score: 2.45
- residues: "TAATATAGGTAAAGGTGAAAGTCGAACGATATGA"
  PBM binding z-score: 1.62
- residues: "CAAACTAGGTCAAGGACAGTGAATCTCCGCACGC"
  PBM binding z-score: 3.69
- residues: "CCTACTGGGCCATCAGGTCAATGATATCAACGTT"
  PBM binding z-score: 2.1
- residues: "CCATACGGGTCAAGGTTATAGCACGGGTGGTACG"
  PBM binding z-score: 4.7
- residues: "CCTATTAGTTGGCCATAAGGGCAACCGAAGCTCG"
  PBM binding z-score: 0.564
- residues: "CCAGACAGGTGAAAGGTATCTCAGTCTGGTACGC"
  PBM binding z-score: 0.551
- residues: "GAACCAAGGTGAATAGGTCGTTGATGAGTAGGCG"
  PBM binding z-score: 2.53
- residues: "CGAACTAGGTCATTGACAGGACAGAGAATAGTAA"
  PBM binding z-score: 4.41
- residues: "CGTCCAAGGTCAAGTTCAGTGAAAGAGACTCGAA"
  PBM binding z-score: 6.6
- residues: "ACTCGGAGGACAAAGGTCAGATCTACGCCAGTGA"
  PBM binding z-score: 5.88
- residues: "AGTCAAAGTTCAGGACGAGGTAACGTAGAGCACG"
  PBM binding z-score: 4.8
- residues: "TCTCGGAGGACACGAAAGGTCAGAGCACGACATC"
  PBM binding z-score: 5.01
- residues: "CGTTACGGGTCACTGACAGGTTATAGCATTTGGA"
  PBM binding z-score: 5.78
- residues: "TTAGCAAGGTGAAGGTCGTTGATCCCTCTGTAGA"
  PBM binding z-score: 1.09
- residues: "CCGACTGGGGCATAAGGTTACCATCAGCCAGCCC"
  PBM binding z-score: 1.41
- residues: "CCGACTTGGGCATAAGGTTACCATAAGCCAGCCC"
  PBM binding z-score: 0.45
- residues: "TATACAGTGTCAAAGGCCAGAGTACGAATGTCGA"
  PBM binding z-score: 1.53
- residues: "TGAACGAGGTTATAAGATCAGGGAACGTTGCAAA"
  PBM binding z-score: 1.53
- residues: "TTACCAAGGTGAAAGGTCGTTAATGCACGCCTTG"
  PBM binding z-score: 3.93
- residues: "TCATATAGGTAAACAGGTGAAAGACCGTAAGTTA"
  PBM binding z-score: 0.712
- residues: "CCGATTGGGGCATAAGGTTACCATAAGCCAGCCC"
  PBM binding z-score: 1.79
- residues: "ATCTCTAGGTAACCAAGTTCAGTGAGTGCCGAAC"
  PBM binding z-score: 0.591
- residues: "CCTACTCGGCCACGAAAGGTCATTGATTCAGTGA"
  PBM binding z-score: 4.8
- residues: "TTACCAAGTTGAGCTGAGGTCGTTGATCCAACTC"
  PBM binding z-score: 0.311
- residues: "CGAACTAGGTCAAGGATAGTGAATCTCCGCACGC"
  PBM binding z-score: 3.74
- residues: "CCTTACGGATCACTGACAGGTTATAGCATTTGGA"
  PBM binding z-score: 0.614
- residues: "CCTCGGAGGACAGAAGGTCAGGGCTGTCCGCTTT"
  PBM binding z-score: 3.67
- residues: "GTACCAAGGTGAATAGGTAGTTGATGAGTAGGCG"
  PBM binding z-score: 0.67
- residues: "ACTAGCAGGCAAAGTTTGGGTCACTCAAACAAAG"
  PBM binding z-score: 0.87
- residues: "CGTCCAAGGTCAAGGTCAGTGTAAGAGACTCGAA"
  PBM binding z-score: 6.56
